// data source = the supplement of paper PMC10567573

Exercise: for every item that follows, state its recorded protein stability index.
B1: FBXO3 (parent)
chain: FIDTYSDVGRYIDHYAAIKKAWDD

variants of: B1; experiment: protein stability index of a GFP-peptide fusion (GPS, HEK-293T) (PSI 1-6); higher = more stable; details: c terminus: a fixed tail appended;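 note: lentivirally expressed fusions sorted by FACS into six bins by GFP to DsRed ratio, PSI derived from sequencing read proportions per bin multiplied by bin number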
Numbers only.

Reference set, count: 3
A21W ... 1.7
K20Q ... 1.68
K19A ... 1.37

Below is a list of variants. For each, state its recorded protein stability index.
1. F1Y
2. Y11D
3. Y5D
4. D24R
5. Y5W
6. K19C

[2.09, 1.78, 2.9, 1.99, 2.27, 1.55]

For every item below, please supply its protein stability index.
1. D7G
2. V8S
3. V8W

[2.33, 1.72, 1.62]

# per-item lookup of protein stability index; items listed below
1. Y15I
2. D3C
3. R10A
4. G9T
5. I18C
6. D3P
7. S6K
8. D3K

[2.15, 1.57, 1.6, 1.83, 1.94, 2.01, 1.65, 1.91]
